assay_text: Absorbance measurements (molecular extinction coefficient)
Assay type: physicochemical
assay_context: acetone/ethyl acetate 75:25, 10^-6 mole/l coumarin
property_name: ε = molecular extinction coefficient, 365 nm

compound="Cc1cc(=O)oc2cc(N(C)C)ccc12 [COUMARINE-311, dimethylamino-7 methyl-4 coumarin]" reported="26900 M⁻¹ cm⁻¹"
compound="Cc1cc(=O)oc2c3c4c(cc12)CCCN4CCC3 [COUMARINE-102]" reported="23000 M⁻¹ cm⁻¹"
compound="CCN(CC)c1ccc2c(C)cc(=O)oc2c1 [COUMARINE-1, dimethylamino-7 methyl-4 coumarin]" reported="38 000"
